Experiment: in vitro
Conditions: human, HepG2 cells; n = 1
In plain terms, low CC50 at 48 h, meaning strictly below 10 µM, gives criterion met, and everything else gives criterion not met.

Look over these answered cases.
compound	assigned.category
CCCCC(=O)NC(c1cccs1)c1cc(Cl)c2cccnc2c1O (centres unmarked)	criterion not met
Oc1c(CN2CCCCC2)cc(COCc2ccccc2)c2cccnc12	criterion met
Cc1nn(-c2ccc(C(C)C)cc2)c(C)c1[C@@H]1C=C[C@@H](NCc2ccccc2)C1	criterion not met
CCCC(=O)NC(c1ccc(C(C)C)cc1)c1ccc2cccnc2c1O (centres unmarked)	criterion not met

With those in mind, consider the next compound.
Query: Please check: CC50 at 48 h for CCCN(CCC)c1nc(-c2ccccn2)nc2ccccc12 , strictly under 10 µM or not?
Result: criterion met

----------
System: P. berghei-ANKA-GFP-LucCON liver stage parasites in HepG2-A16-CD81EGFP cells
Experiment: P. berghei liver stage Pb-Luc assay, Method 1 (UCSD, 1536-well)
Format: cell-based, Plasmodium berghei
Settings: Plasmodium berghei, Method 1; Hill fit, 50% of maximum activity response; read-out: AC50
log10(AC50) values, listed per item
Hi team, quick reminder: these entries are log10 of AC50 (µM).

Example cases with answers are listed next.
compound	target.under.test	measured.result
Cc1ccc(NC2=C(c3ccc(C(F)(F)F)cc3)C(=O)c3ccccc32)cc1C	P. berghei-ANKA-GFP-LucCON liver stage parasites in HepG2-A16-CD81EGFP cells	-0.35
COc1ccc(-n2nc(C)c([C@@H]3C=C[C@@H](NCc4ccc(N(C)C)cc4)C3)c2C)cc1	P. berghei-ANKA-GFP-LucCON liver stage parasites in HepG2-A16-CD81EGFP cells	0.15
Cc1nn2c(c1-c1ccccc1-c1ccccc1)N(Cc1ccc(O)cc1)CCC2	P. berghei-ANKA-GFP-LucCON liver stage parasites in HepG2-A16-CD81EGFP cells	0.20
COc1ccc(-n2nc(C)c([C@@H]3C=C[C@@H](NCc4cccc(Cl)c4)C3)c2C)cc1	P. berghei-ANKA-GFP-LucCON liver stage parasites in HepG2-A16-CD81EGFP cells	0.20
COc1ccccc1NS(=O)(=O)c1cc(NC(=O)c2ccc(Cl)nc2)ccc1Cl	P. berghei-ANKA-GFP-LucCON liver stage parasites in HepG2-A16-CD81EGFP cells	0.30

Query: Please report the measured log10(AC50) for O=C1c2ccccc2C(=O)c2[nH]c(=O)[nH]c21
Result: 0.20

Query: Please report the measured log10(AC50) for c1ccc(CCNc2ccnc3cc4ccccc4cc23)cc1
Result: -0.40

Query: Please report the measured log10(AC50) for O=C(Cc1ccc(O)cc1)N1CC(CNc2ccccc2)C2(C1)CN(c1ccccc1)C2 (stereo not drawn)
Result: -0.35

Query: Please report the measured log10(AC50) for O=C(Nc1ccc([N+](=O)[O-])cc1)Nc1nc(-c2ccc(Cl)s2)cs1
Result: -0.75

----------
Test: in vitro
Conditions: human, hepg2 cells
reported.endpoint: CC50 at 48 h (µM)
Could you give me the number in µM? Just the number is fine.

Example cases with answers are listed next.
compound	measured.result
Cc1c2ccncc2c(C)c2c1[nH]c1ccccc12	43.2
CC(C)c1nc(-c2ccc(OC3CCN(C(=O)CCc4nc5ccccc5[nH]4)C3)cc2)no1 (centres unmarked)	27.3
COc1ccc(NC(=O)OC[C@H]2C[C@@H]3CCN2C[C@@H]3c2cc(C3CCCC3)nc(-c3ccncc3)n2)cc1	43.2
COc1cc2nc(Nc3ccc(C)c(C)c3)nc(N)c2cc1OC	43.2
C/C(=N\NC(=O)c1cccc(Br)c1)c1ccccn1	1.37
CC(C)(C)OC(=O)N1CCC(c2c(C(=O)NCCN3CCC(Cc4ccccc4)CC3)cnn2-c2ccc(F)cc2)CC1	43.2

As a next step, examine the compound that follows.
Query: Please report the measured CC50 at 48 h for Cc1cccc(-c2cc3nc(C)c(C)c(NCCCn4ccnc4)n3n2)c1
Result: 48.5

----------
Tested on: Plasmodium falciparum Dd2-attB-ScDHODH (transgenic line expressing yeast DHODH), asexual blood stages
Construct: Dd2-attB-ScDHODH, the transgenic line that expresses yeast DHODH
Assay: organism not typed
Design: replicate k of 3 (each line is one of three independent assays; the three lines of one compound and parasite line follow each other)
Conditions: 72 h; n = 1; read-out: Individual replicates / Log AC50 (converted)
In plain terms, low AC50, meaning strictly below 9 µM, gives yes (1), and everything else gives no (0).

compound	assigned.category
CCOC(=O)c1ccc(OC(C)=O)c2ncc(N3CCOCC3)cc12 [NCGC00244523-01]	yes (1)
O=C(O)c1ccnc2cc(C(OCCCN3CCCCC3)c3ccccc3Cl)[nH]c12 (stereo not drawn) [NCGC00421948-01]	yes (1)
Oc1ccc(CNc2ccc3ccccc3n2)c2cccnc12 [NCGC00241029-01]	yes (1)
Oc1ccc(CNc2ccccc2F)c2cccnc12 [NCGC00031503-02]	no (0)

Query: Please check: AC50 for O=[S+]([O-])(Nc1ccc(O)c2ncccc12)c1ccccc1F [NCGC00184887-01] , strictly under 9 µM or not?
Result: no (0)

Query: Please check: AC50 for Cc1ccccc1CN1CCN(c2cnc3c(O)ccc(C(=O)O)c3c2)CC1 [NCGC00249382-01] , strictly under 9 µM or not?
Result: no (0)

----------
Experiment: in vitro
Details: human, hepg2 cells
In plain terms, low CC50 at 48 h, meaning strictly below 30 µM, gives 1, and everything else gives 0.

Look over these answered cases.
Cc1cc(C)n(-c2nc3ccccc3c(=O)n2OCC#N)n1 1
Cc1cc(O)c(-c2cc(C(=O)Nc3sc4c(c3C(=O)NCc3ccco3)CCC4)[nH]n2)cc1C 0
Cc1nn2c(c1-c1ccccc1Oc1ccccc1)N(Cc1ccccc1O)CCC2 0
CCN(CC)CCCN(c1ccccc1)C1Cc2ccccc2C1.Cl 1
CN(C)CCCNc1cc(N2CCN(C3CCCCC3)CC2)c2noc3c2c1C(=O)c1ccccc1-3 0
Br.CCOC(=O)c1c(CSC(=N)N)n(-c2ccc(Br)cc2)c2cc(Br)c(OC(C)=O)cc12 0

With those in mind, consider the next compound.
Query: Please check: CC50 at 48 h for c1ccc(-[n+]2nc(Nc3cccc4ccccc34)sc2-c2c3ccccc3cc3ccccc23)cc1 , strictly under 30 µM or not?
Result: 0

----------
viability at 48 h, 3 µM values, listed per item
Test: in vitro
Conditions: human, HepG2-A16-CD81EGFP cells, uninfected
Could you give me the number in %? Just the number is fine.

N#Cc1cc(C(=O)c2cc(Br)ccc2O)cn(C2CCCCC2)c1=O 84

Query: Please report the measured viability at 48 h, 3 µM for c1ccc(-c2nc(N3CCCCCC3)c3ccccc3n2)nc1
Result: 88

Query: Please report the measured viability at 48 h, 3 µM for O=C1C(Nc2ccccc2)=C/C(=N\S(=O)(=O)c2cccs2)c2ccccc21
Result: 76

Query: Please report the measured viability at 48 h, 3 µM for Cc1ccc2c(c1)[nH]c1c(N3CCN(Cc4ccccc4)CC3)ncnc12
Result: 88

Query: Please report the measured viability at 48 h, 3 µM for COC(=O)c1c(-c2c(Cl)cccc2Cl)noc1NC(=O)NN1CCCCC1
Result: 87

Query: Please report the measured viability at 48 h, 3 µM for CCCc1ccc(C(=O)NC(=O)c2ccccc2O)cc1
Result: 94

Query: Please report the measured viability at 48 h, 3 µM for Cc1c(C#N)c2ccccc2n1CCOc1ccccc1F
Result: 97

----------
System: Plasmodium falciparum Dd2 asexual blood stage parasites
Assay: microbe, parasite or virus in culture
Parameters: species or system Plasmodium falciparum Dd2 in human erythrocytes; single determination (one 11-point concentration-response curve)
Settings: Plasmodium falciparum, DD2, Erythrocyte, 72 h; read-out: AC50
reported.endpoint: log10 of AC50 (log10 of the value in µM)
Hi team, quick reminder: these entries are log10 of AC50 (µM).

Example cases with answers are listed next.
compound	target.under.test	measured.result
COc1ccc2[nH]c(C)c(CCN(Cc3cccs3)C(S)=Nc3ccccc3)c2c1	Plasmodium falciparum Dd2 asexual blood stage parasites	0.42
O=C1N(c2ccccc2C(F)(F)F)O[C@@]1(c1ccccc1)C1CCCC1	Plasmodium falciparum Dd2 asexual blood stage parasites	0.48
CN(C)c1nc2c(c(=O)[nH]1)CCN(Cc1ccc(Br)cc1)CC2	Plasmodium falciparum Dd2 asexual blood stage parasites	1.12
Cc1cccc(CNCc2ccccc2OCC(O)CN2CCSCC2)c1 (stereo not drawn)	Plasmodium falciparum Dd2 asexual blood stage parasites	0.18
CCOC(=O)c1c(C)oc2c1C(=O)c1ccccc1C2=O	Plasmodium falciparum Dd2 asexual blood stage parasites	-0.37

Query: Please report the measured log10 of AC50 for COc1ccc(CC(=O)N2Cc3ccccc3CC3(CCCN3C)C2)cc1 (stereo not drawn)
Result: 0.97

Query: Please report the measured log10 of AC50 for COc1cc2c(cc1OCC1CC1)NC(=O)C21CCN(c2nccs2)CC1
Result: 1.34

Query: Please report the measured log10 of AC50 for Cc1ccc(S(=O)(=O)c2nnn3c2nc(N2CCN(c4ccccn4)CC2)c2ccccc23)cc1
Result: 0.88

Query: Please report the measured log10 of AC50 for CCN1CC=C(c2c[nH]c3ccccc23)CC1
Result: 0.63

Query: Please report the measured log10 of AC50 for CN1N=C(C(=O)N2CCc3c([nH]c4ccccc34)C2c2ccccc2Cl)CCC1=O (stereo not drawn)
Result: 0.73

Query: Please report the measured log10 of AC50 for COc1ccc(C(C)NC(S)=NC2CCCC2)cc1OC (stereo not drawn)
Result: 0.82

Query: Please report the measured log10 of AC50 for O=C(Nc1ccc(S(=O)(=O)N2CCOCC2)cc1)c1cc(-c2cc(Cl)ccc2O)n[nH]1
Result: 0.42

Query: Please report the measured log10 of AC50 for O=C1NCN(c2ccccc2)C12CCN(CCCC(c1ccc(F)cc1)c1ccc(F)cc1)CC2
Result: 0.73

Query: Please report the measured log10 of AC50 for O=C(CN1CCC(n2nnc3cc(F)ccc32)CC1)Nc1ccccc1N1CCOCC1
Result: 0.73

Query: Please report the measured log10 of AC50 for CC1CCCN(Cc2c(O)ccc3c4c(c(=O)oc23)CCCC4)C1 (stereo not drawn)
Result: 0.82

Query: Please report the measured log10 of AC50 for O=S(=O)(c1ccc(Cl)cc1)N1CCN(/C(S)=N/c2ccccc2F)CC1
Result: 0.37

Query: Please report the measured log10 of AC50 for O=[S+]([O-])(NCC1CN(Cc2ccc(O)cc2)CC12CN(c1ccccc1)C2)c1ccccc1 (stereo not drawn)
Result: 0.82

Query: Please report the measured log10 of AC50 for COc1ccc(S(=O)(=O)N2CCCCCC2)cc1NC(=O)c1c2c(nc3ccccc13)CCN(Cc1ccccc1)C2
Result: 0.67

The reported numbers originate from paper PMC7822874.
